Biological target: Human P2Y12 receptor (Homo sapiens)
Construct: expressed in transfected cells; host or cells: HEK cells
Test: Human P2Y12 receptor cell membrane binding assay with [3H] 2-Mes-ADP
Conditions: 1 nM [3H] 2-Mes-ADP, membranes of HEK cells expressing P2Y12 receptor; read-out: Binding activity (IC50)
Field 'label' (enum: condition met / condition not met). Set to condition met when IC50 is strictly under 200 nM; else condition not met.

Solved cases below.
COMPOUND	ASSIGNED CATEGORY
CCCc1cc2c(N3CCn4c(nnc4C(F)(F)F)C3)nc(N3CCNCC3)nc2s1	condition met
CCc1cc2c(N3CCn4c(C)nnc4C3)nc(N3CCNC(=O)C3)nc2s1	condition not met
Cc1cc2c(N3CCn4c(nnc4C(F)(F)F)C3)nc(N3CCNC(=O)C3)nc2s1	condition not met
CCc1cc2c(N3CCc4cc(OC)c(OC)cc4C3)nc(N3CCNC(=O)C3)nc2s1	condition not met
CCc1cc2c(N3CCn4c(nnc4C(F)(F)F)C3)nc(NCCO)nc2s1	condition not met

Task item: Find out if reported IC50 for CCCc1cc2c(N3CCn4c(C)nnc4C3)nc(OCCCO)nc2s1 is less than 200 nM
Reply: condition not met

Task item: CCCc1cc2c(N3CCn4c(C)nnc4C3)nc(OCC(O)CO)nc2s1 (centres unmarked) , same question.
Reply: condition not met

Task item: Also CCc1cc2c(N3CCc4c([nH]c5ccccc45)C3)nc(N3CCNC(=O)C3)nc2s1 ?
Reply: condition not met

Task item: Quick one: CCCc1cc2c(N3CCn4c(nnc4C(F)(F)F)C3)nc(-c3nc(-c4ccccc4)no3)nc2s1
Reply: condition not met

Task item: Now the compound CCCc1cc2c(N3CCn4c(nnc4C(F)(F)F)C3)nc(N3CCc4ccccc4C3)nc2s1
Reply: condition not met

Task item: Same lookup for CCc1cc2c(N3CCn4c(nnc4C(F)(F)C(F)(F)F)C3)nc(N3CCNC(=O)C3)nc2s1 , please.
Reply: condition met

Task item: Quick one: CCCc1cc2c(N3CCn4c(nnc4C(F)(F)F)C3)nc(N3CCN(c4cccc(O)c4)CC3)nc2s1
Reply: condition met

Task item: What about CCCc1cc2c(N3CCn4c(nnc4C(F)(F)F)C3)nc(N3CC[C@H](NC(=O)CC#N)C3)nc2s1 ?
Reply: condition met

Task item: Then this compound: CCCc1cc2c(N3CCn4c(nnc4C(F)(F)F)C3)nc(N3CC[C@H](C(N)=O)C3)nc2s1
Reply: condition met

Task item: And what about the compound CCCc1cc2c(N3CCn4c(nnc4C(F)(F)F)C3)nc(OCCC(=O)OCOC(=O)C(C)(C)C)nc2s1 ?
Reply: condition not met

Task item: And CCCc1cc2c(N3CCn4c(nnc4C(F)(F)F)C3)nc(OCCc3cc(F)cc(F)c3F)nc2s1 ?
Reply: condition met

Task item: Please answer likewise for CCCc1cc2c(N3CCn4c(nnc4C(F)(F)F)C3)nc(OCCNC(=O)CS(C)(=O)=O)nc2s1
Reply: condition met

Task item: Next compound: CCCc1cc2c(N3CCn4c(nnc4C(F)(F)F)C3)nc(-c3nnc(COC)o3)nc2s1
Reply: condition met

Task item: Again, but for CCCc1cc2c(N3CCn4c(nnc4C(F)(F)F)C3)nc(N3CCn4c(nnc4C(F)(F)F)C3)nc2s1
Reply: condition met

Task item: Now the same for CCCc1cc2c(N3CCn4c(nnc4C(F)(F)F)C3)nc(N3CC[C@H](NCCO)C3)nc2s1
Reply: condition met

Task item: Also CCCc1cc2c(N3CCn4c(nnc4C(F)(F)F)C3)nc(OC3Cc4ccccc4C3)nc2s1 ?
Reply: condition met

Task item: Do the same for CCCc1cc2c(N3CCn4c(nnc4C(F)(F)F)C3)nc(OCCC(OC)OC)nc2s1 please
Reply: condition not met

Task item: For CCCc1cc2c(N3CCn4c(nnc4C(F)(F)F)C3)nc(N3CCc4cc(OC)c(OC)cc4C3CC)nc2s1 (centres unmarked) then?
Reply: condition not met

Task item: What about this compound? CCCc1cc2c(N3CCn4c(nnc4C(F)(F)F)C3)nc(Sc3ncccn3)nc2s1
Reply: condition not met

Task item: Next up: CCCc1cc2c(N3CCn4c(nnc4C(F)(F)F)C3)nc(C(=O)O)nc2s1
Reply: condition not met

Task item: Same question, CCCc1cc2c(N3CCn4c(nnc4C(F)(F)F)C3)nc(N3CCN(CC4CCCC4)CC3)nc2s1 this time
Reply: condition not met

Task item: Okay, and CCCc1cc2c(N3CCn4c(nnc4C(F)(F)F)C3)nc(N3CC(OC(C)=O)C3)nc2s1 ?
Reply: condition met

* * *

Target: Human P2Y12 receptor (Homo sapiens, UniProt Q9H244)
Construct: expressed in transfected cells; host or cells: HEK cells
Sequence (Q9H244 whole entry): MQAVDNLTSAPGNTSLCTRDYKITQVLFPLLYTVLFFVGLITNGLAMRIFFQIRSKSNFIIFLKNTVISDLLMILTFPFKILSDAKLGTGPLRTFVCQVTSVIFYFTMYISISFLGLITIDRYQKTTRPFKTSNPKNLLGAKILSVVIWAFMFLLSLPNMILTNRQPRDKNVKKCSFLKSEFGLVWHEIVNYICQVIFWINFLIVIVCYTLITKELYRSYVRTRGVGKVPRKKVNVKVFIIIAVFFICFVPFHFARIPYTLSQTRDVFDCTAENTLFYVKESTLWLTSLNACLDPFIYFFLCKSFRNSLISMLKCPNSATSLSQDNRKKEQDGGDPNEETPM
Test: Human P2Y12 receptor cell membrane binding assay with [3H] 2-Mes-ADP
Conditions: 1 nM [3H] 2-Mes-ADP, membranes of HEK cells expressing P2Y12 receptor; read-out: Binding activity (IC50)
MEASURE NAME: IC50
Answer shape: numeric part, then the unit.

CHEMICAL STRUCTURE	IC50
CCCc1cc2c(N3CCn4c(nnc4C(F)(F)F)C3)nc(N3CCNC(=O)C3)nc2s1	20 nM

Task item: Please state recorded IC50 (tested on Human P2Y12 receptor (Homo sapiens, UniProt Q9H244)) of CCCc1cc2c(N3CCn4c(nnc4C(F)(F)F)C3)nc(N3CCC[C@H]3C(=O)OC)nc2s1
Reply: 98 nM

Task item: Could you do the same for CCCc1cc2c(N3CCn4c(nnc4C(F)(F)F)C3)nc(Nc3ncccn3)nc2s1 , please?
Reply: 550 nM

Task item: Would you mind doing CCCc1cc2c(N3CCn4c(nnc4C(F)(F)F)C3)nc(C(=O)NCCC(=O)O)nc2s1 as well?
Reply: 620 nM

Task item: Same for CCCc1cc2c(N3CCn4c(nnc4C(F)(F)F)C3)nc(-c3nnc(CCO)o3)nc2s1
Reply: 320 nM

Task item: CCCc1cc2c(N3CCn4c(nnc4C(F)(F)F)C3)nc(OCc3cocn3)nc2s1 , same question.
Reply: 84 nM

Task item: Entry to check: CCCc1cc2c(N3CCn4c(nnc4C(F)(F)F)C3)nc(OCCNC(=O)CCCS(N)(=O)=O)nc2s1
Reply: 90 nM

Task item: Field entry: CCCc1cc2c(N3CCn4c(nnc4C(F)(F)F)C3)nc(CC(N)=S)nc2s1
Reply: 170 nM

* * *

Molecular target: Human P2Y12 receptor (Homo sapiens, UniProt Q9H244)
Construct: expressed in transfected cells; host or cells: HEK cells
Test: Human P2Y12 receptor cell membrane binding assay with [3H] 2-Mes-ADP
Conditions: 1 nM [3H] 2-Mes-ADP, membranes of HEK cells expressing P2Y12 receptor; read-out: Binding activity (IC50)
# note: exactly 200 nM is not below, so it is N; use Y for IC50 strictly under it

Task item: Does the reported IC50 of the following molecule sit strictly below 200 nM? CCCc1cc2c(N3CCn4c(nnc4C(F)(F)F)C3)nc(O)nc2s1
Reply: N

Task item: Do the same for CC(C)Cc1cc2c(N3CCn4c(nnc4C(F)(F)F)C3)nc(N3CCNC(=O)C3)nc2s1 please
Reply: N

Task item: For CCc1cc2c(N3CCn4ccnc4C3)nc(OCC(O)CO)nc2s1 (stereo not shown) then?
Reply: N

Task item: Try CCc1cc2c(N3CCc4c(nc(-c5ccoc5)nc4C(F)(F)F)C3)nc(N3CCNC(=O)C3)nc2s1 next.
Reply: N

Task item: Record: CCCc1cc2c(N3CCn4c(nnc4C(F)(F)F)C3)nc(C(=O)NCC(=O)OCC)nc2s1
Reply: N

* * *

Molecular target: Human P2Y12 receptor (Homo sapiens)
Construct: expressed in transfected cells; host or cells: HEK cells
Experiment: Human P2Y12 receptor cell membrane binding assay with [3H] 2-Mes-ADP
Settings: 1 nM [3H] 2-Mes-ADP, membranes of HEK cells expressing P2Y12 receptor; read-out: Binding activity (IC50)
MEASURE NAME: pIC50
In plain terms, pIC50 is the concentration in mol/L turned into minus its base-10 logarithm.

Reference set, count: 4
COMPOUND	pIC50
CCCc1cc2c(N3CCn4c(nnc4C(F)(F)F)C3)nc(OCCC(=O)OC(C)C)nc2s1	6.80
CCCc1cc2c(N3CCn4c(nnc4C(F)(F)F)C3)nc(OC3CCCC3)nc2s1	7.28
CCCc1cc2c(N3CCn4c(nnc4C(F)(F)F)C3)nc(N3CCC(=NOCc4ccccc4)C3)nc2s1	6.34
CCCc1cc2c(N3CCn4c(nnc4C(F)(F)F)C3)nc(-c3nnc(CC#N)o3)nc2s1	7.17

Task item: I would be grateful if you could share the reported pIC50 for CCCc1cc2c(N3CCn4c(nnc4C(F)(F)F)C3)nc(N3CCC(OC)C3)nc2s1 (stereo not shown) .
Reply: 7.27

Task item: Same thing, different compound: CCCc1cc2c(N3CCn4c(nnc4C(F)(F)F)C3)nc(N3CCCC(C(=O)OCC)C3)nc2s1 (stereo not shown)
Reply: 6.47

Task item: Further, for CCc1cc2c(N3CCc4c(nc(C(F)(F)F)nc4C(F)(F)F)C3)nc(OCC(O)CO)nc2s1 (stereo not shown) ?
Reply: 5.33

Task item: Could you do the same for CCCc1cc2c(N3CCn4c(nnc4C(F)(F)F)C3)nc(NC(Cc3ccc(O)cc3)C(=O)O)nc2s1 (stereo not shown) , please?
Reply: 6.49

Task item: Query CCCc1cc2c(N3CCn4c(nnc4C(F)(F)F)C3)nc(N3CCCC(C(=O)OC(C)C)C3)nc2s1 (stereo not shown) next
Reply: 6.55
